Target Of Assay: CHO cells overexpressing the human IGF-II/man6P receptor (Homo sapiens)
Construct: expressed in transfected cells; host or cells: CHO cells
Sequence (P11717 41-2491): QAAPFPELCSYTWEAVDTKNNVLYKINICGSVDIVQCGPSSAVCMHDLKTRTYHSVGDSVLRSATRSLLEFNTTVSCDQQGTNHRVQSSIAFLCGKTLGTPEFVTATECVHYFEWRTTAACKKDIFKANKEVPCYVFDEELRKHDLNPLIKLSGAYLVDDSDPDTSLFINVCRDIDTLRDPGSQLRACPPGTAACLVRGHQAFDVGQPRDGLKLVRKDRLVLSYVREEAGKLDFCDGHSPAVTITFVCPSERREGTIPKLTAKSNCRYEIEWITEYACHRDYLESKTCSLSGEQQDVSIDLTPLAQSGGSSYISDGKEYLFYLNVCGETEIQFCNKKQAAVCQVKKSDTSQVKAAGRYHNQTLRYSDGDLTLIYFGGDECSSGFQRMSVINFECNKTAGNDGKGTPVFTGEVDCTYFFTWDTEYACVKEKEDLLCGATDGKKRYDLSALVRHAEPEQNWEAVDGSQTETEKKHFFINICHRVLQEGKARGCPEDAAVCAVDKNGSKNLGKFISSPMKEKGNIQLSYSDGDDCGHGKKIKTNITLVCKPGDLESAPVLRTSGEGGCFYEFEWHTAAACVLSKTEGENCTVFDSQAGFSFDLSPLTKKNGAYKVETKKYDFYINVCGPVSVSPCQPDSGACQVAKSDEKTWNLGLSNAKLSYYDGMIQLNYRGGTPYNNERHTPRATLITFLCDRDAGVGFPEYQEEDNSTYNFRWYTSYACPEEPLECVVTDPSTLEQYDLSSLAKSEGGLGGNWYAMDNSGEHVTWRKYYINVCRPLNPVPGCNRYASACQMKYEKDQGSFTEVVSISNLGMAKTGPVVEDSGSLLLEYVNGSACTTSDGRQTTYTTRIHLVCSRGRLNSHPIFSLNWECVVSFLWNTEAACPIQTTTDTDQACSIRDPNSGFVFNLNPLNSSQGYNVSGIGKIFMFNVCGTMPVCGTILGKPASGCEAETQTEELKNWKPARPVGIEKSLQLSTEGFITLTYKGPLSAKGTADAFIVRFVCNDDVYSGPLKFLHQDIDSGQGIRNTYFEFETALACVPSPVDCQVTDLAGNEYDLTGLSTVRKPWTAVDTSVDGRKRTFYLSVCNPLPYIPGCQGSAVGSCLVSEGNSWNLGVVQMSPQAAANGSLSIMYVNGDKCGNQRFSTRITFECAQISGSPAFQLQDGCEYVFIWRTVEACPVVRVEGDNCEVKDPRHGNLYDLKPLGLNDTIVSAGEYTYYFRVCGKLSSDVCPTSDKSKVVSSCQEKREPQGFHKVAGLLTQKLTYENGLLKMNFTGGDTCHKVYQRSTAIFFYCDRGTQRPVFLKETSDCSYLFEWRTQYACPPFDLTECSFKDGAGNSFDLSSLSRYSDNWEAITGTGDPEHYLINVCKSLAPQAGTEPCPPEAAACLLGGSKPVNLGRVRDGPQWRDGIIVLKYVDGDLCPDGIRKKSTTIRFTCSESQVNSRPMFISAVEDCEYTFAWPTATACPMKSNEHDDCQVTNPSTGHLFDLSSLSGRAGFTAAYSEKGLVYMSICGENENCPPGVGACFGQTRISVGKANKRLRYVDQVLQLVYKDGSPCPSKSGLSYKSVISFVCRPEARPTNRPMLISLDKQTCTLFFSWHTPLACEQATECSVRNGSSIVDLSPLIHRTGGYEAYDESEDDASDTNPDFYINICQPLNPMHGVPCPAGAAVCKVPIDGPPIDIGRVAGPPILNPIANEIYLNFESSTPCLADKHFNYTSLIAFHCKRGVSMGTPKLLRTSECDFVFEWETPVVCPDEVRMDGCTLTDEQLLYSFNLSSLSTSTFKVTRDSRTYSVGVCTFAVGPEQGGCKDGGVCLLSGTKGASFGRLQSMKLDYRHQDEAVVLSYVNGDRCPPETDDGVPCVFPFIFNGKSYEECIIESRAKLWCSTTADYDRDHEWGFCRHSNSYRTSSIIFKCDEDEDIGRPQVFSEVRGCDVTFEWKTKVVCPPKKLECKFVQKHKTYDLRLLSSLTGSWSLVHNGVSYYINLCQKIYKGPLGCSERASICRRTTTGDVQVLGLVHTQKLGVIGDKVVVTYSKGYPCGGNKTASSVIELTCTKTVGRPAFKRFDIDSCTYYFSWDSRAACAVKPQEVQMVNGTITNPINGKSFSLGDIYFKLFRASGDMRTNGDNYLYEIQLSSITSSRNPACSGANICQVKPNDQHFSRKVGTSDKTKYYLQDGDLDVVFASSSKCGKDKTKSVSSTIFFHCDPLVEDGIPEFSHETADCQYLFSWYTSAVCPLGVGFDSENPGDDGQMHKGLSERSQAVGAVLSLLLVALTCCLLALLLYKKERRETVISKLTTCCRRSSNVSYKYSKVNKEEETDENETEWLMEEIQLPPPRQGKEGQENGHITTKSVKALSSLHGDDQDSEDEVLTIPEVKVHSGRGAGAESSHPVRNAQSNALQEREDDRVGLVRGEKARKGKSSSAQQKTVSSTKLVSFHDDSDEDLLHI
Procedure Details: Binding to CHO cells overexpressing the receptor
Measurement Conditions: FIG. 37A; read-out: half-maximal inhibition of TGF-β1 precursor binding to transfected CHO cells
Method: Binding and internalization studies with transfected and control CHO cells were performed in 24-well culture plates. Confluent cells were washed and incubated for 5 hours at 4°C with the labeled ligand in 0.3 ml of binding buffer (100 mM Hepes, pH 7.6, 120 mM NaCl, 1.2 mM MgSO₄, 15 mM sodium acetate, 5 mM glucose). Cells were then washed twice, lysed with 0.1% sodium docecyl sulfate and counted. […] The cells were then washed, solubilized, and counted as above.

# Compound, IC50
measured = [
    ("O=P(O)(O)OC[C@H]1OC(O)[C@@H](O)[C@@H](O)[C@@H]1O (stereo partly shown) [mannose 6-phosphate]", "10 µM"),
]

====

Target Of Assay: CHO cells overexpressing the human IGF-II/man6P receptor (Homo sapiens)
Construct: expressed in transfected cells; host or cells: CHO cells
Procedure Details: Binding to CHO cells overexpressing the receptor
Measurement Conditions: read-out: half-maximal inhibition of rTGF-β1 precursor binding to transfected CHO cells

# Molecule, Target Of Assay, IC50, µM
rows = [
    ("O=P(O)(O)OC[C@H]1OC(O)[C@@H](O)[C@@H](O)[C@@H]1O (stereo partly shown) [mannose 6-phosphate]", "CHO cells overexpressing the human IGF-II/man6P receptor (Homo sapiens)", 10),
]
